biological target: human B1R (bradykinin receptor 1) (Homo sapiens); construct: expressed in transfected cells; host or cells: CHO K1 cells; experiment: FLIPR Ca2+ assay (Fluo-4) on CHO K1 cells stably transfected with the human B1R gene (hB1R cells): % inhibition at 10 μM / IC50, agonist Lys-Des-Arg9-bradykinin; assay type: cell-based; conditions: CHO-K1, human B1R
Sequence (P46663 whole entry): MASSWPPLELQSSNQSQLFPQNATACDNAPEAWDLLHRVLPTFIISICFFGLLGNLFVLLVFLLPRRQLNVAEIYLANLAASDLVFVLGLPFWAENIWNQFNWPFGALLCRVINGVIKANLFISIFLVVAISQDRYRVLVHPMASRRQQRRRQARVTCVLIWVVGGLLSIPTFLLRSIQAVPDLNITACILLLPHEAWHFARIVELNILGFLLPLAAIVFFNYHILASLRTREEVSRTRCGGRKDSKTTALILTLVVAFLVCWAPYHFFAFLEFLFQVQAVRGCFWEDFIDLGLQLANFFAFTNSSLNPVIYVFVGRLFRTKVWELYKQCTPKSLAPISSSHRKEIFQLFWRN

{"columns": ["Molecule", "inhibition at 10 µM"],
 "data": [
  ["O=C(N[C@@H]1CCOc2c(F)cc(C(=O)N3CCC4(CCN(c5ccncc5)CC4)C3)cc21)c1ccccc1Cl [Example H-73]", "100%"],
  ["O=C(NC1CCc2ccc(C(=O)N3CCC4(CCN(C(=O)C5CC5)CC4)C3)cc21)c1ccccc1Cl (stereo not shown) [IND_CC-573]", "43%"],
  ["Cc1cc(N2CCC3(CCN(C(=O)c4ccc5c(c4)[C@H](NC(=O)c4ccccc4Cl)CC5)C3)CC2)ccn1 [Example H-112]", "100%"],
  ["CN(C1CCc2ccc(C(=O)N3CCC4(CC3)CCN(c3ccncc3)CC4)cc21)S(=O)(=O)Cc1ccccc1C(F)(F)F (stereo not shown) [IND_CC-226]", "98%"]
]}
